// values below are reported DC50
TGT: CK1α (Homo sapiens, UniProt P48729+Q96SW2)
Construct: CSNK1A1-HiBit KI HEK293(LgBit) Cells; host or cells: HEK293(LgBit) knock-in cells
Sequence (P48729 whole entry): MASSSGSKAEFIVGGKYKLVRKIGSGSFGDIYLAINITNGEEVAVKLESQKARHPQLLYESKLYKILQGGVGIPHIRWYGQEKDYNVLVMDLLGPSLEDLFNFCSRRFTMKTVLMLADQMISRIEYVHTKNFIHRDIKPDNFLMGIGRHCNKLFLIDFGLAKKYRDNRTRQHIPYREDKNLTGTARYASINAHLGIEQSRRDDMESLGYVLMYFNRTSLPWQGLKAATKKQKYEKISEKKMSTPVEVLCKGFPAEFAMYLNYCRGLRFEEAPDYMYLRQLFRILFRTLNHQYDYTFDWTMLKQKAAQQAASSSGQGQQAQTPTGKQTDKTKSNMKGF
Sequence (Q96SW2 whole entry): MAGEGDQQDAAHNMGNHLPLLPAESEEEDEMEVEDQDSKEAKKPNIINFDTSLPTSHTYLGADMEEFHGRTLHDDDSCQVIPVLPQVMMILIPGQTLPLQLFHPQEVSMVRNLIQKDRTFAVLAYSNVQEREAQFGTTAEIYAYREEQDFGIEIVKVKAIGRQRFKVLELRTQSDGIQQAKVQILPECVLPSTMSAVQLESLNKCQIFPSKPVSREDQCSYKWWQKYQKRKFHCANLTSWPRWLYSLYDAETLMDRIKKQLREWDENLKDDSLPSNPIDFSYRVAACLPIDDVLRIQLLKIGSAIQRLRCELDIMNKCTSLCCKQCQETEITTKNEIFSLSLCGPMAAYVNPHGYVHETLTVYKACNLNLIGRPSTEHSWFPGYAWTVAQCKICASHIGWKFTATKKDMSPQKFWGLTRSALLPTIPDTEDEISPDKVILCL
Sequence (Q16531 whole entry partner): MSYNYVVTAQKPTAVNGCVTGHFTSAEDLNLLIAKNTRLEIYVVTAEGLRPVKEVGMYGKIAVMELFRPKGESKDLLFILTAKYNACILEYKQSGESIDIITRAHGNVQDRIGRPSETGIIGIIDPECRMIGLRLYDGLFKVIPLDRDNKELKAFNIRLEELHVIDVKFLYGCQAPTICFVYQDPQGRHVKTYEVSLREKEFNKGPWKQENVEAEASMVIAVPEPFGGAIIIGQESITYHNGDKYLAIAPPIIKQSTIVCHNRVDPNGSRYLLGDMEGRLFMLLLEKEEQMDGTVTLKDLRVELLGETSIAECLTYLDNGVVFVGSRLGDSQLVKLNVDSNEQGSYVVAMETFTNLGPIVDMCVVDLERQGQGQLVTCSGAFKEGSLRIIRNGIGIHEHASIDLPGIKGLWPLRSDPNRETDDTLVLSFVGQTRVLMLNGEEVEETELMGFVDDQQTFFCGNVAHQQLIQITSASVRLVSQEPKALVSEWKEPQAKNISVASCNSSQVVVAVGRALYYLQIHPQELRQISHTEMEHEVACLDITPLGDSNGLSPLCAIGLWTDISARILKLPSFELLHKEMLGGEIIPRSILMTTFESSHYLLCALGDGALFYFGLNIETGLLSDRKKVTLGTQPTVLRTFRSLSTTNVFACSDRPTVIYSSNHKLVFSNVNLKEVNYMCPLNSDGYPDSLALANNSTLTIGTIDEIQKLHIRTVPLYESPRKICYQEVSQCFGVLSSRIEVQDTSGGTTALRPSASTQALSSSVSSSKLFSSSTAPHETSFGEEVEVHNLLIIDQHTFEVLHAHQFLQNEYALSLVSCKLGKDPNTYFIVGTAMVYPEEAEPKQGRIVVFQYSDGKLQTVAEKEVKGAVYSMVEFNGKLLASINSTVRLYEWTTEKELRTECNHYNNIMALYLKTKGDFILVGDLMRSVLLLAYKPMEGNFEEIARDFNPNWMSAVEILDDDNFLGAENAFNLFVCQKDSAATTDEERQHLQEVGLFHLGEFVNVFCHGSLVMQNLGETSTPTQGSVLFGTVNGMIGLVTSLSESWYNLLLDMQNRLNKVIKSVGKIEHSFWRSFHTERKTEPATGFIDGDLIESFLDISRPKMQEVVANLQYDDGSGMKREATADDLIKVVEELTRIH
EXPERIMENT_DESCRIPTION: HiBiT degradation assay, CK1α, Procedure A
Format: cell-based
SETTINGS: six hours

Solved entries (count: 4):
Cn1ncc(-c2ccc3c(c2)CN(C2CCC(=O)NC2=O)C3=O)c1-c1ccc2c(c1)CCCO2 (stereo not shown) | < 25 nM
Cn1nc(-c2ccc3c(c2)CN(C2CCC(=O)NC2=O)C3=O)nc1N1CCC(C(F)(F)F)CC1 (stereo not shown) | < 25 nM
Cn1cnc(-c2ccc3c(c2)CN(C2CCC(=O)NC2=O)C3=O)c1-c1ccc2c(cnn2C)c1 (stereo not shown) | < 25 nM
Cn1cnc(-c2ccc3c(c2)CN(C2CCC(=O)NC2=O)C3=O)c1C1=CCOC1 (stereo not shown) | < 25 nM

Ask | Please indicate recorded DC50 of Cn1nc(-c2ccc3c(c2)CN(C2CCC(=O)NC2=O)C3=O)nc1N1CCc2ccccc2C1 (stereo not shown) measured with CK1α (Homo sapiens, UniProt P48729+Q96SW2).
Reply | < 25 nM

Ask | Please indicate recorded DC50 of Cn1ncc(-c2ccc3c(c2)CN(C2CCC(=O)NC2=O)C3=O)c1-c1cnn(Cc2cccnc2)c1 (stereo not shown) measured with CK1α (Homo sapiens, UniProt P48729+Q96SW2).
Reply | ≥ 25 nM

Ask | Please indicate recorded DC50 of Cn1ncc(-c2ccc3c(c2)CN(C2CCC(=O)NC2=O)C3=O)c1-c1ccc(N2CCCCC2)nc1 (stereo not shown) measured with CK1α (Homo sapiens, UniProt P48729+Q96SW2).
Reply | ≥ 25 nM

Ask | Please indicate recorded DC50 of Cn1ncc(-c2ccc3c(c2)CN(C2CCC(=O)NC2=O)C3=O)c1-c1ccc2nc[nH]c2c1 (stereo not shown) measured with CK1α (Homo sapiens, UniProt P48729+Q96SW2).
Reply | ≥ 25 nM

Ask | Please indicate recorded DC50 of Cn1nc(-c2ccc3c(c2)CN(C2CCC(=O)NC2=O)C3=O)nc1N1[C@@H]2CCC[C@H]1CC2 (stereo partly shown) measured with CK1α (Homo sapiens, UniProt P48729+Q96SW2).
Reply | < 25 nM

Ask | Please indicate recorded DC50 of Cn1ncc(-c2ccc3c(c2)CN(C2CCC(=O)NC2=O)C3=O)c1C1=CCCC1 (stereo not shown) measured with CK1α (Homo sapiens, UniProt P48729+Q96SW2).
Reply | < 25 nM

Ask | Please indicate recorded DC50 of Cn1cc(-c2ccc3c(c2)CN(C2CCC(=O)NC2=O)C3=O)nc1-c1nn(C)c2ccccc12 (stereo not shown) measured with CK1α (Homo sapiens, UniProt P48729+Q96SW2).
Reply | < 25 nM

Ask | Please indicate recorded DC50 of CC(C)c1nc(-c2ccc3c(c2)CN(C2CCC(=O)NC2=O)C3=O)c(-c2ccccc2)o1 (stereo not shown) measured with CK1α (Homo sapiens, UniProt P48729+Q96SW2).
Reply | < 25 nM

----------
// values below are reported DC50
TGT: CK1α (Homo sapiens, UniProt P48729+Q96SW2)
Construct: CSNK1A1-HiBit KI HEK293(LgBit) Cells; host or cells: HEK293(LgBit) knock-in cells
EXPERIMENT_DESCRIPTION: HiBiT degradation assay, CK1α, Procedure A
Format: cell-based
SETTINGS: six hours

Solved entries (count: 6):
Cn1cc(-c2ccc3c(c2)CN(C2CCC(=O)NC2=O)C3=O)nc1-c1cccc2cnccc12 (stereo not shown) | < 25 nM
CCCCc1ccc(-c2nc(-c3ccc4c(c3)CN(C3CCC(=O)NC3=O)C4=O)cn2C)cc1 (stereo not shown) | < 25 nM
Cn1cc(-c2ccc3c(c2)CN(C2CCC(=O)NC2=O)C3=O)nc1-c1ccc(N2CCNCC2)cc1 (stereo not shown) | ≥ 25 nM
Cn1nc(-c2ccc3c(c2)CN(C2CCC(=O)NC2=O)C3=O)nc1C1CCCCC1 (stereo not shown) | ≥ 25 nM
Cn1ncc(-c2ccc3c(c2)CN(C2CCC(=O)NC2=O)C3=O)c1-c1cc[nH]n1 (stereo not shown) | ≥ 25 nM
Cn1cnc(-c2ccc3c(c2)CN(C2CCC(=O)NC2=O)C3=O)c1-c1cnc(N)nc1 (stereo not shown) | ≥ 25 nM

Now for the compound whose DC50 we want.
Ask | Using known records, supply DC50 for Cn1cnc(-c2ccc3c(c2)CN(C2CCC(=O)NC2=O)C3=O)c1-c1ccc(N)cc1 (stereo not shown)
Reply | < 25 nM
